test system: E. coli ATCC 25922; assay: MIC assay, CLSI broth microdilution, E. coli ATCC 25922 (AECO001); type: cell-based; details: Escherichia coli; AECO001 is ATCC25922; 35° C., 20 hours; read-out: MIC AECO001
quantity.name: MIC

Asked: Please supply the value of reported MIC for the item CN[C@@H]1[C@@H](O)[C@@H](O[C@@H]2[C@@H](O)[C@H](O[C@H]3OC(CNCC(O)CN)=CC[C@H]3N)[C@@H](N)C[C@H]2NC(=O)[C@@H](O)CN)OC[C@]1(C)O (some centres unmarked)
Given back: 1 to 16 µg/mL

Asked: # return recorded MIC for input CN[C@@H]1[C@@H](O)[C@@H](O[C@@H]2[C@@H](O)[C@H](O[C@H]3OC(CNCC4(O)CC(CN)C4)=CC[C@H]3N)[C@@H](N)C[C@H]2NC(=O)[C@@H](O)CCN)OC[C@]1(C)O (some centres unmarked)
Given back: < 1 µg/mL

Asked: Output MIC of CN[C@@H]1[C@@H](O)[C@@H](O[C@@H]2[C@@H](O)[C@H](O[C@H]3OC(CNCCCN)=CC[C@H]3N)[C@@H](N)C[C@H]2NC(=O)[C@@H](O)CCN)OC[C@]1(C)O
Given back: < 1 µg/mL

Asked: Identify the reported MIC for the following entry. CN[C@@H]1[C@@H](O)[C@@H](O[C@@H]2[C@@H](O)[C@H](O[C@H]3OC(CNCC4CCNCC4)=CC[C@H]3N)[C@@H](N)C[C@H]2NC(=O)[C@@H](O)CN)OC[C@]1(C)O
Given back: < 1 µg/mL

Asked: Annotate the compound CN[C@@H]1[C@@H](O)[C@@H](O[C@@H]2[C@@H](O)[C@H](O[C@H]3OC(CNCCO)=CC[C@H]3N)[C@@H](N)C[C@H]2NC(=O)[C@@H](O)CCN)OC[C@]1(C)O with its measured MIC.
Given back: < 1 µg/mL

Asked: Could you please provide reported MIC for CN[C@@H]1[C@@H](O)[C@@H](O[C@@H]2[C@@H](O)[C@H](O[C@H]3OC(CNCCCN)=CC[C@H]3N)[C@@H](N)C[C@H]2NC(=O)[C@@H](O)CN)OC[C@]1(C)O ? Thanks!
Given back: < 1 µg/mL

Asked: Read the entry CN[C@@H]1[C@@H](O)[C@@H](O[C@@H]2[C@@H](O)[C@H](O[C@H]3OC(CNCC4CCNCC4)=CC[C@H]3N)[C@@H](N)C[C@H]2NC(=O)[C@@H](O)CCN)OC[C@]1(C)O and write its reported MIC.
Given back: 1 to 16 µg/mL

Asked: Give the measured MIC for CN[C@@H]1[C@@H](O)[C@@H](O[C@@H]2[C@@H](O)[C@H](O[C@H]3OC(CNCC4CC4)=CC[C@H]3N)[C@@H](N)C[C@H]2NC(=O)[C@@H](O)CCN)OC[C@]1(C)O
Given back: < 1 µg/mL

Asked: Read off the recorded MIC for CNCC1=CC[C@@H](N)[C@@H](O[C@H]2[C@H](O)[C@@H](O[C@H]3OC[C@](C)(O)[C@H](NC)[C@H]3O)[C@H](NC(=O)C3(O)CNC3)C[C@@H]2N)O1
Given back: < 1 µg/mL

Asked: Determine its reported MIC: CN[C@@H]1[C@@H](O)[C@@H](O[C@@H]2[C@@H](O)[C@H](O[C@H]3OC(CNCCCN)=CC[C@H]3N)[C@@H](N)C[C@H]2NC(=O)C2(O)CNC2)OC[C@]1(C)O
Given back: < 1 µg/mL

Asked: Query MIC for CN[C@@H]1[C@@H](O)[C@@H](O[C@@H]2[C@@H](O)[C@H](O[C@H]3OC(CNCC4CC4)=CC[C@H]3N)[C@@H](N)C[C@H]2NC(=O)[C@@H](O)CN)OC[C@]1(C)O
Given back: 1 to 16 µg/mL

---

Tested on: E. coli ATCC 25922
Assay: murine septicemia model of infection, E. coli
Format: in vivo
Details: mice inoculated IP, single SC or IV dose 1 hour after challenge, mortality 7 days; ED50 values are mg/kg
Experimental: Two models were run on each compound, using E. coli and P. aeruginosa QC bacterial strains. Both studies employed the same design. […] At 1 hour after bacterial challenge, the mice received a single SC or IV […] dose of vehicle or test substance to assess in vivo anti-infective activity. Mortality was recorded once daily for 7 days after bacterial inoculation.
Answer each item with its documented ED50/MIC E. Coli.

Asked: Provide one value: measured ED50/MIC E. Coli of CN[C@@H]1[C@@H](O)[C@@H](O[C@@H]2[C@@H](O)[C@H](O[C@H]3OC(CNCCCN)=CC[C@H]3N)[C@@H](N)C[C@H]2NC(=O)[C@@H](O)CN)OC[C@]1(C)O
Given back: 1

Asked: Give the value of ED50/MIC E. Coli reported for the following: CN[C@@H]1[C@@H](O)[C@@H](O[C@@H]2[C@@H](O)[C@H](O[C@H]3OC(CN)=CC[C@H]3NC(=N)N)[C@@H](N)C[C@H]2NC(=O)[C@@H](O)CCN)OC[C@]1(C)O
Given back: 2

Asked: Could you please provide reported ED50/MIC E. Coli for CN[C@@H]1[C@@H](O)[C@@H](O[C@@H]2[C@@H](O)[C@H](O[C@H]3OC(CNCC(O)CN)=CC[C@H]3N)[C@@H](N)C[C@H]2NC(=O)[C@@H](O)CN)OC[C@]1(C)O (stereo partly shown) ? Thanks!
Given back: 1

Asked: Specify ED50/MIC E. Coli for CN[C@@H]1[C@@H](O)[C@@H](O[C@@H]2[C@@H](O)[C@H](O[C@H]3OC(CNCCCN)=CC[C@H]3N)[C@@H](N)C[C@H]2NC(=O)C2(O)CNC2)OC[C@]1(C)O and stop.
Given back: 2

Asked: Identify ED50/MIC E. Coli associated with the compound CN[C@@H]1[C@@H](O)[C@@H](O[C@@H]2[C@@H](O)[C@H](O[C@H]3OC(CNCCO)=CC[C@H]3N)[C@@H](N)C[C@H]2NC(=O)[C@@H](O)CCN)OC[C@]1(C)O
Given back: <2

Asked: Give the reported ED50/MIC E. Coli for this compound. NCC[C@H](O)C(=O)N[C@@H]1C[C@H](N)[C@@H](O[C@H]2O[C@H](CN)[C@@H](O)[C@H](O)[C@H]2O)[C@H](O)[C@H]1O[C@H]1O[C@H](CO)[C@@H](O)[C@H](N)[C@H]1O [Amikacin, amikacin, reference compound]
Given back: 1.5

Asked: Output measured ED50/MIC E. Coli for this item: CN[C@@H]1[C@@H](O)[C@@H](O[C@@H]2[C@@H](O)[C@H](O[C@H]3OC(CNCCO)=CC[C@H]3N)[C@@H](N)C[C@H]2NC(=O)[C@@H](O)CN)OC[C@]1(C)O
Given back: 1

---

system: E. coli ATCC 25922; experiment: MIC assay, CLSI broth microdilution, E. coli ATCC 25922 (AECO001); format: cell-based; conditions: Table 3; E. coli ATCC25922
quantity.name: MIC AECO001 (µg/mL)
Express your answer in µg/mL, writing the number without its unit.

Asked: Annotate the compound CN[C@@H]1[C@@H](O)[C@@H](O[C@@H]2[C@@H](O)[C@H](O[C@H]3OC(CNCC4CC4)=CC[C@H]3N)[C@@H](N)C[C@H]2NC(=O)[C@@H](O)CN)OC[C@]1(C)O with its measured MIC AECO001.
Given back: 1

Asked: Using known records, supply MIC AECO001 for CN[C@@H]1C(O)[C@@H](O[C@@H]2[C@@H](O)[C@H](OC3OC(CN)=CC[C@H]3N)[C@@H](N)C[C@H]2NC(=O)[C@@H](O)CN)OC[C@]1(C)O (stereo partly drawn) [Mono-substituted Compound 5, reference compound]
Given back: 0.5

Asked: Give the value of MIC AECO001 reported for the following: CN[C@@H]1[C@@H](O)[C@@H](O[C@@H]2[C@@H](O)[C@H](O[C@H]3OC(CNCC4CC4)=CC[C@H]3N)[C@@H](N)C[C@H]2NC(=O)[C@@H](O)CCN)OC[C@]1(C)O
Given back: 1

Asked: Indicate its recorded MIC AECO001; the compound in question is CN[C@@H]1[C@@H](O)[C@@H](O[C@@H]2C(O)[C@H](O[C@H]3OC(CNCC4CC4)=CC[C@H]3N)[C@@H](N)C[C@H]2N)OC[C@]1(C)O (stereo partly drawn) [Mono-substituted Compound 2, reference compound]
Given back: 1

Asked: Complete the entry with MIC AECO001 for CN[C@@H]1[C@@H](O)[C@@H](O[C@@H]2C(O)[C@H](O[C@H]3OC(CNCCCN)=CC[C@H]3N)[C@@H](N)C[C@H]2N)OC[C@]1(C)O (stereo partly drawn) [Mono-substituted Compound 4, reference compound]
Given back: 2

Asked: Look up and state reported MIC AECO001 for CNCC1=CC[C@@H](N)[C@@H](O[C@H]2C(O)[C@@H](O[C@H]3OC[C@](C)(O)[C@H](NC)[C@H]3O)[C@H](N)C[C@@H]2N)O1 (stereo partly drawn) [Mono-substituted Compound 1, reference compound]
Given back: 1

Asked: Output measured MIC AECO001 for this item: CN[C@@H]1C(O)[C@@H](O[C@@H]2[C@@H](O)[C@H](OC3OC(CN)=CC[C@H]3N)[C@@H](N)C[C@H]2NC(=O)[C@@H](O)CCN)OC[C@]1(C)O (stereo partly drawn) [Mono-substituted Compound 6, reference compound]
Given back: 0.5

Asked: State its MIC AECO001: CNCC1=CC[C@@H](N)[C@@H](O[C@H]2[C@H](O)[C@@H](O[C@H]3OC[C@](C)(O)[C@H](NC)[C@H]3O)[C@H](NC(=O)C3(O)CNC3)C[C@@H]2N)O1
Given back: 1

Asked: Using the record for CN[C@@H]1[C@@H](O)[C@@H](O[C@@H]2[C@@H](O)[C@H](O[C@H]3OC(CNCC4CCNCC4)=CC[C@H]3N)[C@@H](N)C[C@H]2NC(=O)[C@@H](O)CCN)OC[C@]1(C)O , state its measured MIC AECO001.
Given back: 1
